Values from PubChem BioAssay (NCI)

# protocol-text: NCI Yeast Anticancer Drug Screen. Data for the mlh1 strain (AID 171)
# recorded-conditions: S. cerevisiae mlh1 strain growth inhibition; at 33.0 µM
About 79,000 compounds went through this panel and 15% of them were active in at least one assay; those are over-represented in the sample as a whole. Activity calls are given as the source filed them. Cut-off read from the data, not from the text of the source: active = growth inhibition above about 70%; inactive = the rest.
Your answer must be one of the following: active, inactive

Observe how each entry below is paired with its result.
{"columns": ["compound", "assigned-label"],
 "data": [
  ["O=C(CC(=O)n1nc(-c2ccccc2)c(N=Nc2ccccc2C(=O)O)c1-c1ccccc1)Nc1ccc(Cl)cc1", "inactive"],
  ["COC(=O)c1ccc(CCC2=CC(=O)C(Br)=CC2=O)cc1", "inactive"],
  ["CCC/C(Cl)=N\\OC(=O)Nc1ccc(Br)cc1", "active"],
  ["CC1C(NNc2ccccc2)Oc2cc3c(cc2C1c1ccccc1O)OCO3 (centres undefined)", "active"],
  ["c1ccc2c(c1)C(=NCCCN1CCCCCC1)c1cccn1-2", "inactive"]
]}

Query: Answer briefly: the call reported for O=CC=C(c1ccccc1)c1ccccc1 in this assay.
Result: inactive

Query: Answer briefly: the call reported for CC(C(=O)N1C(=O)N(C(=O)[C@H](C)C(O)c2ccccc2)[C@H](c2ccccc2)[C@H]1c1ccccc1)[C@@H](O)c1ccccc1 (some centres undefined) in this assay.
Result: inactive

Query: Answer briefly: the call reported for O=S(=O)(CCCl)c1ccccc1Cl in this assay.
Result: active

Query: Answer briefly: the call reported for COC(=O)c1cc(-c2ccc(C)cc2)[nH]c(=O)c1C#N in this assay.
Result: inactive

Query: Answer briefly: the call reported for COc1ccccc1/C=C1\Sc2scc(-c3cccc([N+](=O)[O-])c3)[n+]2C1=O in this assay.
Result: active

Query: Answer briefly: the call reported for O=C1OC(=O)C2CCCC3CCCC1C32 (centres undefined) in this assay.
Result: active

Query: Answer briefly: the call reported for O=C1Nc2ccc(Cl)c(I)c2C1=O in this assay.
Result: inactive
